Target: T1, EsCas13d, nuclease-dead (Eubacterium siraeum, UniProt B0MS50, R295A;H300A;R849A;H854A)
T1 sequence: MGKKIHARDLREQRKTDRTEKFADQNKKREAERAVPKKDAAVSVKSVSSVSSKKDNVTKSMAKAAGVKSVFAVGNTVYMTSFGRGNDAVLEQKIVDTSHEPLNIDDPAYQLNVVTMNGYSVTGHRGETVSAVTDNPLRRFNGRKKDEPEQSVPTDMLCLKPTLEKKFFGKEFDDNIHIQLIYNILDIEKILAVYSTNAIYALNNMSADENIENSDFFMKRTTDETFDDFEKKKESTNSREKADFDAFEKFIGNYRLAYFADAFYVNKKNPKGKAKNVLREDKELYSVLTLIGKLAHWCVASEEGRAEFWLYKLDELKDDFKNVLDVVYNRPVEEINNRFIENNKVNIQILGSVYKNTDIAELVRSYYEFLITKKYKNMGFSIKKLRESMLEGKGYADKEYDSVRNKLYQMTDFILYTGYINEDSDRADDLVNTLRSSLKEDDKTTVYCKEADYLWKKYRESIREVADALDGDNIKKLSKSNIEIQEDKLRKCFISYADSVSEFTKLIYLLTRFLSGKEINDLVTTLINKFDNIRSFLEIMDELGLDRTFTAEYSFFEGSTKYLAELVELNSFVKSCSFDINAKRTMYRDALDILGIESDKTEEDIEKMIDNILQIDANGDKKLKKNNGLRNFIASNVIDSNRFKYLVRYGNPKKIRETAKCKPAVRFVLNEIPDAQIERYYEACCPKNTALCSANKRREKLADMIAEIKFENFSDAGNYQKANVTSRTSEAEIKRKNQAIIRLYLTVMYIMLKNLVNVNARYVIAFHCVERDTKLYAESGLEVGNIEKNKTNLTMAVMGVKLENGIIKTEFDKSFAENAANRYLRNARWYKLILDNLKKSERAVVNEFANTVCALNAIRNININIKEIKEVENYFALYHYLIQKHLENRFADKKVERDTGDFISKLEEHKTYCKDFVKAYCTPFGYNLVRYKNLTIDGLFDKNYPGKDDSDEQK
Assay: crRNA (strand 1, pre-loaded); Mg2+; 40 mM Tris-HCl pH 7.5, 150 mM NaCl, 6 mM MgCl2, 1 mM DTT, 0.1% Tween-20, 0.2 mg/ml BSA; 25 C; 10 min per concentration, then washed
Settings: tags: His6-TwinStrep-SUMO cleaved; N-terminal SNAP kept (SNAP-Surface 488); label: 3' end held by stalled T7 RNA polymerase
Quantity name: Kd (nM)

Binder: target 2 MT 5'PFS CGA 3'PFS CUC (mixed) RNA 1: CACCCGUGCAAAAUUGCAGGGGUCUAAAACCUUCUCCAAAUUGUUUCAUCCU RNA 2: GGGAAUGGAUCCACAUCUACGAAUUCCGAAGGAUGAAACAAUUUGGAGAAGCUCAGAUCGGAAGAGCACACGU
Quantity name: Kd
Numeric result: 9.3

Binder: target 1 C2G,U19A (mixed) RNA 1: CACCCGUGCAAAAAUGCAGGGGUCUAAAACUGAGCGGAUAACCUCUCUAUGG RNA 2: GGGAAUGGAUCCACAUCUACGAAUUCGUACCAAAGAGAGGUUAUCCGCUGACCGAGAUCGGAAGAGCACACGU
Quantity name: Kd
Numeric result: 24.9

Binder: target 3 U2G,G4A (mixed) RNA 1: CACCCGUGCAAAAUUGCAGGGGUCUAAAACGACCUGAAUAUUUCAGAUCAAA RNA 2: GGGAAUGGAUCCACAUCUACGAAUUCGUUUUUGAUCUGAAAUAUUCAAGGCUGCAGAUCGGAAGAGCACACGU
Quantity name: Kd
Numeric result: 2.01

Binder: target 1 insA 3' of 17,insU 3' of 14 (mixed) RNA 1: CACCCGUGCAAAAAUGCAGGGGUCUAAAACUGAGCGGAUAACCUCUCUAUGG RNA 2: GGGAAUGGAUCCACAUCUACGAAUUCGUACCAUAGAAGAUGGUUAUCCGCUCACCGAGAUCGGAAGAGCACACGU
Quantity name: Kd
Numeric result: 62

Binder: target 2 MT 5'PFS AGA 3'PFS UCG (mixed) RNA 1: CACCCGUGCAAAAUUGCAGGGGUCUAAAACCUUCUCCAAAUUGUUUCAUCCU RNA 2: GGGAAUGGAUCCACAUCUACGAAUUCAGAAGGAUGAAACAAUUUGGAGAAGUCGAGAUCGGAAGAGCACACGU
Quantity name: Kd
Numeric result: 14

Binder: target 3 C1G,U7A (mixed) RNA 1: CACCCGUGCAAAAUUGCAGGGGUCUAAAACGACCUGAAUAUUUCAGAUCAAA RNA 2: GGGAAUGGAUCCACAUCUACGAAUUCGUUUUUGAUCUGAAAUAUACAGGUGUGCAGAUCGGAAGAGCACACGU
Quantity name: Kd
Numeric result: 15.3

Binder: target 2 MT 5'PFS GUA 3'PFS CGG (mixed) RNA 1: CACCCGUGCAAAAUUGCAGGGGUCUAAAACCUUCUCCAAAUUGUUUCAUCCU RNA 2: GGGAAUGGAUCCACAUCUACGAAUUCGUAAGGAUGAAACAAUUUGGAGAAGCGGAGAUCGGAAGAGCACACGU
Quantity name: Kd
Numeric result: 6.9

Binder: target 1 U11G,A16G (mixed) RNA 1: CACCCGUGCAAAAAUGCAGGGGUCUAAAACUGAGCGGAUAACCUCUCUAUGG RNA 2: GGGAAUGGAUCCACAUCUACGAAUUCGUACCAUAGGGAGGGUAUCCGCUCACCGAGAUCGGAAGAGCACACGU
Quantity name: Kd
Numeric result: 53

Binder: target 3 C6U,U22C (mixed) RNA 1: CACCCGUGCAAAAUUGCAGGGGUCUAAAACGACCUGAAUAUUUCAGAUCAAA RNA 2: GGGAAUGGAUCCACAUCUACGAAUUCGUUCUUGAUCUGAAAUAUUUAGGUCUGCAGAUCGGAAGAGCACACGU
Quantity name: Kd
Numeric result: 14.5

Attribution: paper PMC10786891
